Molecular target: T1, full length human GLP-1R with N-terminal FLAG tag and C-terminal GFP tag, on CHO cells (human, UniProt P43220 24-463)
T1 construct: whole, on cells; the cell line itself is tied to UniProt P43220; also called FLAG-GLP-1R-GFP; CHO-GLP-1R
Experiment: flow cytometry, expressing vs parent CHO cells
Note to self: values exactly at 900 are yes (1). So MFI Ratio at or above 900 is yes (1), below is no (0).

Request: I'd appreciate it if you could say whether GLP1R-221-084 (antibody, V domains shown, IgG) VH: QVQLVESGGGVVQPGRSLRLSCAASGFAFSNYGMHWVRQAPGKGLEWVAVISSDENNKYYADSVKGRFTISRDNSKNTLYLQMNSLRAEDTAVYYCAKHMSMQEGAVTGEMQAAKEFIAWLVKGRVRADLVGDAFDVWGQGTLVTVSS VL: QSVLTQPPSVSAAPGQKVTISCSGSSSNIADNYVSWYQQLPGTAPKLLIYENNRRPSGIPDRFSGSKSGTSATLGITGLQTGDEADYYCGTWDVSLSVGMFGGGTKLTVL has MFI Ratio at least equal to 900.
Response: yes (1)

Request: Dear colleague, could you confirm whether GLP1R-221-033 (antibody, V domains shown, IgG) VH: QVQLVESGGGVVQPGRSLRLSCAASGFSFSNYAMHWVRQAPGKGLEWVAVISHDRSNKYYADSVKGRFTISRDNSKNTLYLQMNSLRAEDTAVYYCAKHMSMQEGAVTGEGQAAKDFIAWLVKGRVRADLVGDAFDVWGQGTLVTVSS VL: QSVLTQPPSVSAAPGQKVTISCSGSSSNIGNEYVSWYQQLPGTAPKLLIYDNNKRVSGIPDRFSGSKSGTSATLGITGLQTGDEADYYCATWDTSLNVGVFGGGTKLTVL has MFI Ratio at or above 900?
Response: yes (1)

Request: Evaluate GLP1R-221-066 (antibody, V domains shown, IgG) VH: QVQLVESGGGVVQPGRSLRLSCAASGFTFNNYAMHWVRQAPGKGLEWVAVISYDRSNEYYADSVKGRFTISRDNSKNTLYLQMNSLRAEDTAVYYCAKHMSMQEGAVTGEGQAIKEFIAWLVKGRVRADLVGDAFDVWGQGTLVTVSS VL: QSVLTQPPSVSAAPGQKVTISCSGSSSNIGNNYLSWYQQLPGTAPKLLIYENNKRPSGIPDRFSGSKSGTSATLGITGLQTGDEADYYCGIWDRSLSAWVFGGGTKLTVL : MFI Ratio at minimum 900?
Response: yes (1)

Request: Exam item: decide whether the reported MFI Ratio for GLP1R-221-009 (antibody, V domains shown, IgG) VH: QVQLVESGGGVVQPGRSLRLSCAASGFIFSNYGMHWVRQAPGKGLEWVAVISDEGSNKYYADSVKGRFTISRDNSKNTLYLQMNSLRAEDTAVYYCAKHMSMQEGAVTGAGQAAKEFIAWLVKGRVRADLVGDAFDVWGQGTLVTVSS VL: QSVLTQPPSVSAAPGQKVTISCSGSSSNIGNQYVSWYQQLPGTAPKLLIYDDHKRPSGIPDRFSGSKSGTSATLGITGLQTGDEADYYCGTWDTSLSVGEFGGGTKLTVL is at least 900.
Response: yes (1)

Request: Is the recorded value of MFI Ratio equal to or greater than 900 for this binder? GLP1R-221-034 (antibody, V domains shown, IgG) VH: QVQLVESGGGVVQPGRSLRLSCAASGFPFSNYGMHWVRQAPGKGLEWVAVISHDRSNKYYADSVKGRFTISRDNSKNTLYLQMNSLRAEDTAVYYCAKHMSMQEGAVTGEGQAVKEFIAWLVKGRVRADLVGDAFDVWGQGTLVTVSS VL: QSVLTQPPSVSAAPGQKVTISCSGSSSNIGNNPVSWYQQLPGTAPKLLIYENDNRPSGIPDRFSGSKSGTSATLGITGLQTGDEADYYCATWDRGLSTGVFGGGTKLTVL
Response: no (0)

Request: Is the recorded value of MFI Ratio equal to or greater than 900 for this binder? GLP1R-221-076 (antibody, V domains shown, IgG) VH: QVQLVESGGGVVQPGRSLRLSCAASGFTFNNYPMHWVRQAPGKGLEWVAVISYDETNKYYADSVKGRFTISRDNSKNTLYLQMNSLRAEDTAVYYCAKHMSMQEGAVTGEGQAAKEFIAWLVKGIVRADLVGDAFDVWGQGTLVTVSS VL: QSVLTQPPSVSAAPGQKVTISCSGTSSNIGNNDVSWYQQLPGTAPKLLIYENNKRHSGIPDRFSGSKSGTSATLGITGLQTGDEADYYCLTWDHSLTAYVFGGGTKLTVL
Response: no (0)
